Hello, the source for this data is patent US9597407B2, in case you need it.

test system: microorganisms; experiment: Morphology, biofilm and growth disruption by peptides (Table 5); format: cell-based; parameters: key: A: Peptide aggregates; B: Less hyphal formation; Clumps; Diffuse clumps and small polyps; F: Diffuse growth; H: Thin; I: Growth inhibition; Microcolony formation; Rippled; Small polyps; Thick; W: Halo formation on top, microlonies on bottom; settings: S. epidermidis
observable: Organism, effect

| substance | observable | result |
| --- | --- | --- |
| PF-053 (KLFGQWGPELGSIYILPALIGSIILIAIVTLILRAMRK; Peptide with targeting and/or antimicrobial activity) | Organism, effect | S. epidermidis (C) |
| PF-065 (LEKNTRDNYFIHAIDRIYINTSKGLFPESELVAWG; Peptide with targeting and/or antimicrobial activity) | Organism, effect | S. epidermidis (D) |
| PF-003 (chain 1 MNNWIKVAQISVTVINEVIDIMKEKQNGGK; chain 2 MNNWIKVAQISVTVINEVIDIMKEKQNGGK; Peptide with targeting and/or antimicrobial activity) | Organism, effect | S. epidermidis (D) |
| PF-199 (FPAFSFGAIAGSVSVAR; Peptide with targeting and/or antimicrobial activity) | Organism, effect | S. epidermidis (C) |
| PF-208 (DAYHCHLVRSPDAHDLSMRIGFV; Peptide with targeting and/or antimicrobial activity) | Organism, effect | S. epidermidis (D) |
| PF-390 (VVAYVITQVGAIRF; Peptide with targeting and/or antimicrobial activity) | Organism, effect | S. epidermidis (D) |
| PF-378 (ESAKSNLNFLMQEEWALFLLL; Peptide with targeting and/or antimicrobial activity) | Organism, effect | S. epidermidis (M) |
| PF-153 (GILARADCSQIA; Peptide with targeting and/or antimicrobial activity) | Organism, effect | S. epidermidis (M) |
| PF-129 (MKLLARDPWVCAWNDIW; Peptide with targeting and/or antimicrobial activity) | Organism, effect | S. epidermidis (M) |
| RRGCTERLRRMARRNAWDLYAEHFY [PF-148] | Organism, effect | S. epidermidis (D) |

input: Quick one: Organism, effect of PF-418 (FFLVHFYIRKRKGKVSIFLNYF; Peptide with targeting and/or antimicrobial activity) ?
output: S. epidermidis (M)

input: Consider the substance PF-347 (GIFTGVTVVVSLKHC; Peptide with targeting and/or antimicrobial activity) and give its measured Organism, effect.
output: S. epidermidis (C)

---

test system: microorganisms; assay: Morphology, biofilm and growth disruption by peptides (Table 5); format: cell-based; set-up: key: A: Peptide aggregates; B: Less hyphal formation; Clumps; Diffuse clumps and small polyps; F: Diffuse growth; H: Thin; I: Growth inhibition; Microcolony formation; Rippled; Small polyps; Thick; W: Halo formation on top, microlonies on bottom; conditions: B. subtilis
observable: Organism, effect

| substance | observable | result |
| --- | --- | --- |
| HCVIGNVVDIANLLKRRAVYRDIADVIKMR [PF-071] | Organism, effect | B. subtilis (D) |
| PF-070 (SMVKSEIVDLLNGEDNDD; Peptide with targeting and/or antimicrobial activity) | Organism, effect | B. subtilis (D) |
| PF-069 (FDPVPLKKDKSASKHSHKHNH; Peptide with targeting and/or antimicrobial activity) | Organism, effect | B. subtilis (D) |

---

test system: microorganisms; assay: Morphology, biofilm and growth disruption by peptides (Table 5); format: cell-based; parameters: key: A: Peptide aggregates; B: Less hyphal formation; Clumps; Diffuse clumps and small polyps; F: Diffuse growth; H: Thin; I: Growth inhibition; Microcolony formation; Rippled; Small polyps; Thick; W: Halo formation on top, microlonies on bottom; details: S. epidermidis
observable: Organism, effect

Here is how some substances turned out for Organism, effect.
| substance | observable | result |
| --- | --- | --- |
| PF-145 (GIVLTGRAGLVSGACSMALGVGLG; Peptide with targeting and/or antimicrobial activity) | Organism, effect | S. epidermidis (D) |
| PF-030 (MTCHQAPTTTHQSNMA; Peptide with targeting and/or antimicrobial activity) | Organism, effect | S. epidermidis (D) |
| PF-273 (LVGALLIFVALIYMVLKGNADKN; Peptide with targeting and/or antimicrobial activity) | Organism, effect | S. epidermidis (C) |
| MIHLTKQNTMEALHFIKQFYDMFFILNFNV [PF-040] | Organism, effect | S. epidermidis (D) |
| PF-099 (EIIAYLEGRFANA; Peptide with targeting and/or antimicrobial activity) | Organism, effect | S. epidermidis (D) |
| PF-128 (GIKVVAARFEEIQFSENFDSIILA; Peptide with targeting and/or antimicrobial activity) | Organism, effect | S. epidermidis (D) |

input: Look up Organism, effect: PF-233 (DANAMARTTIAIVYILALIALTISYSL; Peptide with targeting and/or antimicrobial activity)
output: S. epidermidis (C)

input: Param item = PF-413 (TFAGSIKIGVPDLVHVTFNCKR; Peptide with targeting and/or antimicrobial activity) ; retrieve measured Organism, effect.
output: S. epidermidis (C)

input: Record request: Organism, effect value, item PF-411 (WVAVAILLNIALQTQLT; Peptide with targeting and/or antimicrobial activity)
output: S. epidermidis (C)

input: GET /values?readout=Organism, effect&item= PF-196 (TTARYIRRQCHTSITPLSQG; Peptide with targeting and/or antimicrobial activity)
output: S. epidermidis (C)

input: Which value of Organism, effect has been reported for PF-406 (YLEMNADYLSNMDIFDELWEKYLENNK; Peptide with targeting and/or antimicrobial activity) in the records?
output: S. epidermidis (C)

---

system: microorganisms; assay: Morphology, biofilm and growth disruption by peptides (Table 5); assay type: cell-based; set-up: key: A: Peptide aggregates; B: Less hyphal formation; Clumps; Diffuse clumps and small polyps; F: Diffuse growth; H: Thin; I: Growth inhibition; Microcolony formation; Rippled; Small polyps; Thick; W: Halo formation on top, microlonies on bottom; conditions: C. jeikeium

| substance | measuredOn | Organism, effect |
| --- | --- | --- |
| PF-164 (EEVSRALAGIGLGLGCRIG; Peptide with targeting and/or antimicrobial activity) | microorganisms | C. jeikeium (R) |
| PF-046 (LDFYLTKHLTLML; Peptide with targeting and/or antimicrobial activity) | microorganisms | C. jeikeium (R) |
| PF-011 (MFCYYKQHKGDNFSIEEVKNIIADNEMKVN; Peptide with targeting and/or antimicrobial activity) | microorganisms | C. jeikeium (C) |
| PF-030 (MTCHQAPTTTHQSNMA; Peptide with targeting and/or antimicrobial activity) | microorganisms | C. jeikeium (C) |

---

system: microorganisms; experiment: Morphology, biofilm and growth disruption by peptides (Table 5); format: cell-based; design: key: A: Peptide aggregates; B: Less hyphal formation; Clumps; Diffuse clumps and small polyps; F: Diffuse growth; H: Thin; I: Growth inhibition; Microcolony formation; Rippled; Small polyps; Thick; W: Halo formation on top, microlonies on bottom; conditions: S. pneumoniae
observable: Organism, effect (morphology, biofilm and growth disruption)

| substance | result |
| --- | --- |
| PF-599 (LFEIFKPKH; Peptide with targeting and/or antimicrobial activity) | S. pneumoniae (R) |
| PF-542 (KKDNPSLNDQDKNAVLNLLALAK; Peptide with targeting and/or antimicrobial activity) | S. pneumoniae (H) |
| PF-696 (chain 1 IRSGISAAYARPLR; chain 2 IRSGISAAYARPLR; Peptide with targeting and/or antimicrobial activity) | S. pneumoniae (H) |
| PF-687 (chain 1 AKRVLSLAVAPHRRQPVQGT; chain 2 AKRVLSLAVAPHRRQPVQGT; Peptide with targeting and/or antimicrobial activity) | S. pneumoniae (A) |
| PF-614 (GLDIYA; Peptide with targeting and/or antimicrobial activity) | S. pneumoniae (R) |
| PF-695 (chain 1 ALSVMLGNIPLVVPNANQL; chain 2 ALSVMLGNIPLVVPNANQL; Peptide with targeting and/or antimicrobial activity) | S. pneumoniae (C) |
| PF-631 (chain 1 LIIYFSKTGNTARATRQI; chain 2 LIIYFSKTGNTARATRQI; Peptide with targeting and/or antimicrobial activity) | S. pneumoniae (I) |
| PF-662 (chain 1 GKQSRAHGPVASRREFRRKSG; chain 2 GKQSRAHGPVASRREFRRKSG; Peptide with targeting and/or antimicrobial activity) | S. pneumoniae (A) |

input: Name the reported Organism, effect (morphology, biofilm and growth disruption) value associated with the substance PF-627 (chain 1 INDLLSYFTLHEK; chain 2 INDLLSYFTLHEK; Peptide with targeting and/or antimicrobial activity)
output: S. pneumoniae (I)

input: If you can, please state the reported Organism, effect (morphology, biofilm and growth disruption) value of PF-422 (MSRKKYENDEKSQKKLKIGRKSDVFYGIID; Peptide with targeting and/or antimicrobial activity) .
output: S. pneumoniae (C)

input: I'd like to know its Organism, effect (morphology, biofilm and growth disruption). The substance in question is PF-465 (KPVGKALEEIADGKIEPVVPKEYLG; Peptide with targeting and/or antimicrobial activity)
output: S. pneumoniae (H)
